Test system: M14 melanoma
PROCEDURE_DETAILS: NCI-60 one-dose screen, 48 h
CONDITION_CONTEXT: 10 µM unless noted
Compounds without any hit were thinned out: in the full panel of roughly 83,000, 20% have a hit. Calls of active or inactive are those of the source. How the source made its calls: active means growth percent below 10; inactive means the rest.
Possible outcomes: True (active), False (inactive)

COMPOUND | GROUP
O=S(=O)(Nc1cc(Sc2cccc3cccnc23)c(O)c2ccccc12)c1ccc(F)cc1 | True
CC(=O)c1c(C)nc(SCC(=O)Nc2ccc(Cl)cc2)n1-c1ccc(Cl)cc1 | False
CC12OC(CC(O)C1O)n1c3ccccc3c3c4c(c5c6ccccc6n2c5c31)C(=O)N(CCN1CCOCC1)C4=O (stereo unspecified) | True
Cc1ccc(-c2nc3nc(-c4ccccc4)nc(N4CCCNCC4)c3o2)cc1 | True
COc1cc(/C=C2\CCC/C(=C\c3cc(CN4CCCC4)c(O)c(OC)c3)C2=O)cc(CN2CCCC2)c1O | False
COC1=CC(c2ccc[nH]2)=N/C1=C\c1[nH]c(C)c(C(=O)Oc2ccccc2)c1C | True
Cc1nn(-c2nc(-c3cc4ccccc4oc3=O)cs2)c(C)c1N=Nc1ccccc1 | False
COc1ccc(-c2csc(NC(=O)CN3CCN(CCO)CC3)n2)cc1NS(=O)(=O)c1cccc2c(N(C)C)cccc12 | True
O=C(N/N=C/c1ccc(O)cc1O)c1cccc(Nc2ccnc(C(F)(F)F)c2)c1 | True
Cn1cc(-c2nonc2-c2cn(C)c3ccc(Br)cc23)c2ccccc21 | False
N=c1ccccn1CCO | False
O=C(Nc1ccccc1C(=O)N/N=C(\c1ccccc1)c1ccccn1)c1ccccc1 | True
COc1ccc(C2=C(CN)C(O)NC(=NCC(=O)c3ccc4ccccc4c3)N2)cc1 (stereo unspecified) | False
Clc1ccc2c(NCCN3CCN(c4ccnc(N5CCCC5)n4)CC3)ccnc2c1 | True
COc1ccc(-c2cc(-c3cccc(Cl)c3)c(C#N)c(=O)[nH]2)c(OC)c1 | False
N#Cc1ccccc1OCC(=O)Nc1nc2c(s1)COc1ccccc1-2 | False
CCCCCCCCn1ccc2cc(NC(=O)CN3CCN(c4nc(C)cc(N5CCCCC5)n4)CC3)ccc21 | False
Cc1cccc(Cc2cnc(NC(=O)CCCOc3ccc(Cl)cc3)s2)c1 | True
COc1cc(Nc2nc3ccccc3cc2C(=O)Nc2ccc(F)c(F)c2)cc(OC)c1OC | False
CN1CCCc2cc(/C=C3\SC(=S)N(C(Cc4ccc(O)cc4)C(=O)O)C3=O)ccc21 (stereo unspecified) | False
O=C([C@H]1C[C@H]1c1ccc(S(F)(F)(F)(F)F)cc1)N1CCN(c2cc(Cl)ccc2C(F)(F)F)CC1 | False
COc1ccc2c(c1)c(C(=O)c1nc(-c3cn(C)c4ccccc34)no1)cn2C | False
C#Cc1cc(C(=O)Nc2ccc(CN3CCN(C)CC3)c(C(F)(F)F)c2)ccc1C | True
CC[C@@H]1NC(=O)[C@H]([C@H](O)[C@H](C)C/C=C/c2ccc(CN3C(=O)C(C)=C(C)C3=O)cc2)N(C)C(=O)[C@H](C(C)C)N(C)C(=O)[C@H](CC(C)C)N(C)C(=O)[C@H](CC(C)C)N(C)C(=O)[C@@H](C)NC(=O)[C@H](C)NC(=O)[C@H](CC(C)C)N(C)C(=O)[C@H](C(C)C)NC(=O)[C@H](CC(C)C)N(C)C(=O)CN(C)C1=O | False
C=CCNC(=O)Cc1c(-c2ccc(OC)cc2)oc2c(OC)c3c(c(OC)c12)OCO3 | False
O=C(NNC(=S)Nc1ccccc1)c1ccncc1 | False
CC(=O)N1N=C(c2ccc(F)cc2)CC1c1sc(N(C)Cc2ccccc2)nc1Cl (stereo unspecified) | False
Nc1nc(Nc2cccnc2)sc1C(=O)c1ccccc1F | False
O=C(Nc1ncc(Cc2cccc(C(F)(F)F)c2)s1)c1ccc(-n2cnnn2)cc1 | False
C#CCOCC1CN(C)C(=O)O1 (stereo unspecified) | False
COc1ccc(C2Nc3nc(SC)nc(N)c3N=C3c4ccccc4CCC32)cc1 (stereo unspecified) | False
OCCN1CCN(c2cc(-c3cccc(OC(F)(F)F)c3)nc3ccc(N4CCCC4)cc23)CC1 | False
CC[C@]1(O)CC2CN(CCc3c([nH]c4ccccc34)C(C(=O)OC)(c3cc4c(cc3OC)N(C=O)[C@H]3[C@@](O)(C(=O)OC)[C@H](OC(C)=O)[C@]5(CC)[C@@H]6C[C@@H]6CN6CC[C@]43[C@@H]65)C2)C1 (stereo partly specified) | True
NC1=CC(=O)c2cccnc2C1=O | True
Cc1ccc2nc3ccccc3c(NCc3ccc(Cl)cc3)c2c1 | True
CC[C@]12CN3CCc4c([nH]c5ccccc45)[C@@](C(=O)OC)(c4cc5c(cc4OC)N(C)[C@H]4[C@@](O)(C(=O)OC)[C@H](OC(C)=O)[C@]6(CC)C=CCN7CC[C@]54[C@@H]76)CC(C3)[C@H]1O2 (stereo partly specified) | True
